- System: RPMI-8226 leukemia
- protocol text: NCI tumour cell line growth inhibition, 48 h
quantity: TGI

stdin: Would you mind telling me what TGI value was observed for CC1=NN(c2ccccc2)C(=O)C1C(=O)C(=O)Nc1ccc(C)cc1C (stereo not drawn) ?
stdout: > 100 µM

stdin: Now consider O=CNc1ccc2c(c1)Cc1cc([N+](=O)[O-])ccc1-2 and answer again.
stdout: > 100 µM

stdin: Now consider COc1cc(OC)nc(NC(=O)NS(=O)(=O)c2cccc3ncn(C)c(=O)c23)n1 and answer again.
stdout: > 100 µM

stdin: Now consider NC(CCCNCc1ccccc1O)C(=O)O (stereo not drawn) and answer again.
stdout: > 100 µM

stdin: Now consider O=C1[C@H](c2ccccc2)C2c3ccccc3CCN12 (stereo partly drawn) and answer again.
stdout: > 100 µM

stdin: Now consider CCOC(=O)c1cc(Cl)ccc1OC(N)=O and answer again.
stdout: > 100 µM

stdin: Now consider COc1ccc(C2Oc3c(cccc3OC)C=C2[N+](=O)[O-])cc1 (stereo not drawn) and answer again.
stdout: > 100 µM

stdin: Now consider CC[C@@H]1C[C@@H](O)[C@@H]2[C@H](O)[C@H](O)CN2C1 and answer again.
stdout: > 100 µM

stdin: Now consider N#Cc1ccccc1/C=N/O and answer again.
stdout: > 66.7 µM

stdin: Now consider O=C1C(c2c(O)[nH]c3ccc(S(=O)(=O)N(CCO)CCO)cc23)=Nc2ccccc21 and answer again.
stdout: > 100 µM

stdin: Now consider Cn1cc(C2=C(c3cccc(NCC(O)CO)c3)C(=O)NC2=O)c2cc(Cl)ccc21 (stereo not drawn) and answer again.
stdout: 13.9 µM

stdin: Now consider N=C(N)c1ccc(-c2ccc(-c3ccco3)o2)cc1F and answer again.
stdout: 4.68 µM

stdin: Now consider CCOC(=O)C(SCCO)C(C(=O)OCC)n1cc(C)c(=O)[nH]c1=O (stereo not drawn) and answer again.
stdout: 44.4 µM

stdin: Now consider C=C1CCC2C(C)(CO)C(O)CCC2(C)C1CC(O)C1=CCOC1=O (stereo not drawn) and answer again.
stdout: > 100 µM

stdin: Now consider CN(C)CC1CN(C(=O)Nc2ccccc2)C(=N)O1 (stereo not drawn) and answer again.
stdout: > 100 µM

stdin: Now consider Cc1ccccc1Nc1cn(CCOc2ccccc2)c(=O)n(CCOc2ccccc2)c1=O and answer again.
stdout: > 100 µM

stdin: Now consider Cc1cccc2c(=O)c3c(sc12)c(NCCN)nc1ccccc13 and answer again.
stdout: 1.89 µM

stdin: Now consider Cc1ccc(S(=O)(=O)C2=C3C(=C(c4ccccc4)c4ccccc43)CN(S(=O)(=O)c3ccc(C)cc3)C2)cc1 and answer again.
stdout: 7.41 µM

stdin: Now consider COc1cc2c(cc1OC)C(=O)/C(=C/c1ccccc1)C2 and answer again.
stdout: 71.6 µM

stdin: Now consider COC(=O)c1cc(O)ccc1NC(=O)c1ccc(O)cc1 and answer again.
stdout: > 100 µM

stdin: Now consider O=c1nc2[nH]nc(-c3ccccc3)c2n[nH]1 and answer again.
stdout: > 100 µM

stdin: Now consider CCNC(=O)Cc1nc2c(=O)[nH]cnc2n1C1OC(CO)C(O)C1O (stereo not drawn) and answer again.
stdout: > 100 µM

stdin: Now consider Clc1ccc(-c2cc(-c3nc4ccccc4[nH]3)no2)cc1 and answer again.
stdout: 73.1 µM

* * *

- Test system: SF-539 CNS
- protocol text: NCI tumour cell line growth inhibition, 48 h; in the data active = GI50 below about 0.43 µM; inactive = the rest
Valid outcomes are listed here; reply with one: active, inactive

stdin: Could you kindly confirm the outcome this assay logged for COc1ccc(/C=C2\CCCC3=C2N=C2SC=NN2C3c2ccc(OC)c(OC)c2)cc1OC (centres undefined) ?
stdout: inactive

stdin: Now consider CCNCCNc1cc(C2CCCC2)c(C#N)c2nc3ccccc3n12 and answer again.
stdout: inactive

stdin: Now consider C(#Cc1ccccc1C#Cc1ccccn1)c1ccc(OCCCCCCOc2ccc(C#Cc3ccccc3C#Cc3ccccn3)cc2)cc1 and answer again.
stdout: inactive

stdin: Now consider COc1cc2c3c(n(CCCN4CCOCC4)c(=O)c2cc1OC)-c1cc2c(cc1C3=O)OCO2 and answer again.
stdout: active

stdin: Now consider Cc1ccc(C2CC(c3cccc(Nc4ccncc4)c3)=NN2c2ccc(Cl)cc2)cc1 (centres undefined) and answer again.
stdout: inactive

stdin: Now consider Cn1cc(C2=C(c3cccc(NCC(O)CO)c3)C(=O)NC2=O)c2cc(Cl)ccc21 (centres undefined) and answer again.
stdout: inactive

stdin: Now consider Nc1nn(C(=O)Nc2ccc(Cc3ccccc3)cc2)c2ccccc12 and answer again.
stdout: inactive

stdin: Now consider CC1=C(C(=O)Nc2ccc(Cl)c(Cl)c2)C(c2cccc(O)c2)NC(=S)N1 (centres undefined) and answer again.
stdout: inactive

stdin: Now consider COc1ccc2c(c1)c(=O)oc1cc(OC/C(=N\O)c3ccc(F)cc3)ccc12 and answer again.
stdout: inactive

* * *

- System: SW-620 colon
- protocol text: NCI tumour cell line growth inhibition, 48 h
Exercise: for every item that follows, state its recorded TGI.

stdin: Would you mind telling me what TGI value was observed for COc1cc(CNC(=O)CCCCCCCCCCSSCCCCCCCCCCC(=O)NCc2ccc(O)c(OC)c2)ccc1O ?
stdout: > 10 µM

stdin: Now consider COc1ccc2nc(-c3ccc(O)cc3)cn2c1 and answer again.
stdout: > 100 µM

stdin: Now consider CC1(C)CC[C@]2(C(=O)O)CC[C@]3(C)C(=CC[C@@H]4[C@@]5(C)CC[C@@H]6OC(C)(C)OC[C@@]6(C)[C@@H]5CC[C@]43C)[C@H]2C1 and answer again.
stdout: 29 µM

stdin: Now consider Cn1cc(C2=C(c3cccc(NCC(O)CO)c3)C(=O)NC2=O)c2cc(Cl)ccc21 (stereo unspecified) and answer again.
stdout: 15.7 µM

stdin: Now consider Cn1c2ccccc2c(=S)c2cc(NC(=O)CCCCC(=O)Nc3ccc4c(c3)c(=S)c3ccccc3n4C)ccc21 and answer again.
stdout: > 100 µM

stdin: Now consider COc1cc(OC)nc(NC(=O)NS(=O)(=O)c2cccc3ncn(C)c(=O)c23)n1 and answer again.
stdout: > 100 µM

stdin: Now consider COC(=O)c1cc(/C=C2\Cc3cc4c(cc3C2=O)CCC4)cc2c1CCC2 and answer again.
stdout: > 100 µM

stdin: Now consider O=C(/C=C/c1ccc2c(c1)OCO2)c1ccccc(=O)c1O and answer again.
stdout: > 100 µM

stdin: Now consider O=C1c2ccc3ccccc3c2CCC1N1CCCCC1 (stereo unspecified) and answer again.
stdout: 34.5 µM

stdin: Now consider O=c1nc2[nH]nc(-c3ccccc3)c2n[nH]1 and answer again.
stdout: > 100 µM

stdin: Now consider O=c1[nH][nH]c(=S)c(=O)[nH]1 and answer again.
stdout: > 100 µM

stdin: Now consider O=C1CSc2ccncc2N1 and answer again.
stdout: > 100 µM

stdin: Now consider COc1ccc(OC)c(/C=C/c2cnnc3ccccc23)c1 and answer again.
stdout: > 10 µM

stdin: Now consider COc1cc2c(/C=C3/C(=O)Nc4c3ccc3ccccc43)c(Cl)[nH]c2cc1C and answer again.
stdout: > 50 µM

stdin: Now consider COc1cc([C@@H]2c3cc4c(cc3[C@@H](NC(=O)c3ccc([N+](=O)[O-])cc3)C3COC(=O)[C@@H]32)OCO4)cc(OC)c1O (stereo partly specified) and answer again.
stdout: 4.21 µM

stdin: Now consider Cc1cccc(C(O)c2ccccn2)c1O (stereo unspecified) and answer again.
stdout: > 100 µM

stdin: Now consider COc1ccc(C2SC(C)C(=O)N2NC(=O)C(O)c2ccccc2)cc1 (stereo unspecified) and answer again.
stdout: > 100 µM

stdin: Now consider CCOCC[P+](c1ccccc1)(c1ccccc1)c1ccccc1 and answer again.
stdout: > 100 µM

stdin: Now consider N=C1N=Nc2nc(C3(c4nc5n(c4O)C(=N)N=N5)Cc4ccccc4C3=O)c(O)n21 (stereo unspecified) and answer again.
stdout: > 100 µM

stdin: Now consider Cc1cc2nc3c(C#N)c(-c4ccccc4)cc(Nc4cccc(C(F)(F)F)c4)n3c2cc1C and answer again.
stdout: 20.7 µM

stdin: Now consider CCC(/C=C/c1ccccc1)=N\N=C(\C=C\c1ccccc1)CC and answer again.
stdout: > 100 µM

* * *

- System: RXF 393 renal
- protocol text: NCI tumour cell line growth inhibition, 48 h; in the data active = GI50 below about 0.43 µM; inactive = the rest
Valid outcomes are listed here; reply with one: active, inactive

stdin: Could you kindly confirm the outcome this assay logged for Cn1cc(C2=C(c3cccc(NCC(O)CO)c3)C(=O)NC2=O)c2cc(Cl)ccc21 (stereo unspecified) ?
stdout: inactive

stdin: Now consider O=C1[C@H](c2ccccc2)C2c3ccccc3CCN12 (stereo partly specified) and answer again.
stdout: inactive

stdin: Now consider COc1ccc(-c2oncc2-c2cc(OC)c3c(c2)OCO3)cc1 and answer again.
stdout: inactive

stdin: Now consider CC(=O)O[C@@H]1CC(=O)O[C@@H]2C[C@@H](CC/C(Cl)=C/C/C=C\1C)O[C@@H]2CO and answer again.
stdout: inactive

stdin: Now consider N=C(N)c1ccc(-c2ccc(-c3ccco3)o2)cc1F and answer again.
stdout: inactive

stdin: Now consider O=C(CN/C=C\C(=O)c1cc(Cl)ccc1Cl)c1ccccc1 and answer again.
stdout: inactive

stdin: Now consider COc1cccc(-c2cc(NCc3ccc4c(c3)OCO4)nc(N)n2)c1 and answer again.
stdout: active

stdin: Now consider Cn1cc(-c2nc(-c3cn(C)c4ncccc34)cs2)c2cc(F)ccc21 and answer again.
stdout: inactive

stdin: Now consider Cc1ccc(S(=O)(=O)N2C/C(=C\c3cc(F)cc(F)c3)C(=O)/C(=C/c3cc(F)cc(F)c3)C2)cc1 and answer again.
stdout: inactive

stdin: Now consider Cc1ccc(C2CC(c3cccc(Nc4ccncc4)c3)=NN2c2ccc(Cl)cc2)cc1 (stereo unspecified) and answer again.
stdout: inactive

stdin: Now consider Cc1cc(Cl)ccc1Nc1nc(C(F)(F)F)ccc1C(=O)N/N=C/c1c(Cl)cccc1Cl and answer again.
stdout: inactive
